A collection of compounds and their measured pIC50
- target of assay: HSP60/HSP10 (Homo sapiens, UniProt P10809)
- Sequence (P10809 whole entry): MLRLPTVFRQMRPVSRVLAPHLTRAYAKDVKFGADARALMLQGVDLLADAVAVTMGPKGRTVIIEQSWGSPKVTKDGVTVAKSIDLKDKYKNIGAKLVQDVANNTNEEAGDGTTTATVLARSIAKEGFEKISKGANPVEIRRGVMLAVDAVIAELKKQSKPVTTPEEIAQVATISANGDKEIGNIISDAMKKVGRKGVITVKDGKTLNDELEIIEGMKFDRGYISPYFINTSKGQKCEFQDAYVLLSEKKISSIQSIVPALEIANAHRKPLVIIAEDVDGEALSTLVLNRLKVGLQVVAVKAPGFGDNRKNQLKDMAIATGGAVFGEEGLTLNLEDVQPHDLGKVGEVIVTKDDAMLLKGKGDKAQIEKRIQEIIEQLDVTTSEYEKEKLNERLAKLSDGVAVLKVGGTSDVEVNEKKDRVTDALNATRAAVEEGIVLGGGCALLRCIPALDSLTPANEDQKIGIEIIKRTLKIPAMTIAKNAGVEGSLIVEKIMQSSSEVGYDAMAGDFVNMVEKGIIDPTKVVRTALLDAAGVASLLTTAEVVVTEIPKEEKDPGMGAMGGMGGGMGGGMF
- Sequence (P61604 whole entry, further chain): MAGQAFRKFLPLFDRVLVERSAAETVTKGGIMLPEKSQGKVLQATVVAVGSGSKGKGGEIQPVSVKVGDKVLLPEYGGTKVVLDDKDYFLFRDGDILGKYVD
Note: pIC50 values are expressed as the negative base-10 logarithm of concentration in M.

Reference set, count: 3
{"columns": ["smiles string", "pIC50"],
 "data": [
  ["O=S(=O)(Nc1ccc(-c2nc3cc(NS(=O)(=O)c4ccc(F)cc4)ccc3o2)cc1)c1ccc(F)cc1", 4.20],
  ["COc1ccc(S(=O)(=O)Nc2ccc3oc(-c4ccc(NC(=O)c5cccc(C)c5[N+](=O)[O-])cc4)nc3c2)cc1", 4.14],
  ["O=S(=O)(Nc1ccc(-c2nc3cc(NS(=O)(=O)c4ccccc4)ccc3o2)cc1)c1ccccc1", 4.07]
]}

input: Give the value of pIC50 reported for the following: `O=S(=O)(Nc1ccc(-c2nc3cc(NS(=O)(=O)c4ccc(C(F)(F)F)cc4)ccc3o2)cc1)c1ccc(C(F)(F)F)cc1`
output: 4.24

input: Give the value of pIC50 reported for the following: `O=C(Nc1ccc(Sc2nc3ccccc3s2)cc1)c1cc(Br)cc(Br)c1O`
output: 5.23

input: Give the value of pIC50 reported for the following: `COc1ccc(S(=O)(=O)Nc2ccc3oc(-c4ccc(NC(=O)c5ccc(Cl)s5)cc4)nc3c2)cc1`
output: 4.21

input: Give the value of pIC50 reported for the following: `COc1ccc(S(=O)(=O)Nc2ccc3oc(-c4ccc(NS(=O)(=O)c5cc(Br)ccc5OC)cc4)nc3c2)cc1`
output: 4.17

input: Give the value of pIC50 reported for the following: `Cc1ccc(S(=O)(=O)Nc2ccc(-c3nc4ccc(NS(=O)(=O)c5ccc(C)cc5)cc4[nH]3)cc2)cc1`
output: 4.10

input: Give the value of pIC50 reported for the following: `O=S(=O)(Nc1ccc(-c2nc3cc(NS(=O)(=O)c4cccc(C(F)(F)F)c4)ccc3o2)cc1)c1cccc(C(F)(F)F)c1`
output: 4.27

input: Give the value of pIC50 reported for the following: `O=S(=O)(Nc1ccc(-c2nc3cc(NS(=O)(=O)c4ccc(Cl)s4)ccc3o2)cc1)c1ccc(Cl)c(C(F)(F)F)c1`
output: 5.17

====

- measurement notes: Cytotoxicity against human FHs74Int cells assessed as reduction in cell viability measured after 48 hrs by AlamarBlue assay
- Format: cell-based
test readout: CC50

{"columns": ["smiles string", "CC50"],
 "data": [
  ["O=S(=O)(Nc1ccc(-c2nc3cc(NS(=O)(=O)c4ccc(Br)cc4)ccc3o2)cc1)c1ccc(Br)cc1", "> 100 µM"]
]}

input: Give the value of CC50 reported for the following: `COc1ccccc1S(=O)(=O)Nc1ccc(-c2nc3cc(NS(=O)(=O)c4ccccc4OC)ccc3o2)cc1`
output: 81 µM

input: Give the value of CC50 reported for the following: `O=S(=O)(Nc1ccc(-c2nc3cc(NS(=O)(=O)c4cccc(C(F)(F)F)c4)ccc3o2)cc1)c1cccc(C(F)(F)F)c1`
output: > 100 µM

====

- measurement notes: Cytotoxicity against human FHs74Int cells assessed as reduction in cell viability measured after 48 hrs by AlamarBlue assay
- Format: cell-based
test readout: CC50

Reference set, count: 2
{"columns": ["smiles string", "CC50"],
 "data": [
  ["Cc1ccc(S(=O)(=O)Nc2ccc(-c3nc4ccc(NS(=O)(=O)c5ccc(C)cc5)cc4[nH]3)cc2)cc1", "96 µM"],
  ["O=C(Nc1ccc(Sc2nc3ccccc3s2)c(Cl)c1)c1cccc(Br)c1O", "> 100 µM"]
]}

In the following, a different compound is considered.
input: Give the value of CC50 reported for the following: `COc1ccc(S(=O)(=O)Nc2ccc3oc(-c4ccc(NS(=O)(=O)c5cc(F)ccc5OC)cc4)nc3c2)cc1`
output: > 100 µM
